- Test system: S. aureus
- assay explanation: Summary of in vitro activity (MIC) against S. aureus
- Assay type: cell-based, Staphylococcus aureus
- cond: S. aureus
measured quantity: Geometric Mean of in vitro activity (MIC) (µg/mL)
Report the figure in µg/mL without appending any unit label.

Reference set, count: 2
> print(dat)
                                   compound  target.under.test  scale.unit  value
1  CC(=O)NC[C@H]1CN(c2ccc(N3CCC(N(C)Cc4ccc([N+](=O)[O-])o4)CC3)c(F)c2)C(=O)O1 [Compound No. 50]          S. aureus       µg/mL      1
2  CC(=O)NC[C@H]1CN(c2ccc(N3CC4C(CN(C)Cc5ccc([N+](=O)[O-])o5)C4C3)c(F)c2)C(=O)O1 (some centres unmarked) [Compound No. 40]          S. aureus       µg/mL   1.83

Lookup: Given the compound CC(=O)NC[C@H]1CN(c2ccc(N3CCN(Cc4ccc([N+](=O)[O-])o4)CC3)c(F)c2)C(=O)O1 [Compound No. 15] , what is its reported Geometric Mean of in vitro activity (MIC)?
Found: 1.63

Lookup: Geometric Mean of in vitro activity (MIC) for CC(=O)NC[C@H]1CN(c2ccc(N3CCC(N(C)C(=O)c4ccc([N+](=O)[O-])o4)CC3)c(F)c2)C(=O)O1 [Compound No. 44] ?
Found: 0.11

Lookup: Need Geometric Mean of in vitro activity (MIC) of CC(=O)NC[C@H]1CN(c2ccc(N3CCN(C(=O)c4ccc([N+](=O)[O-])o4)CC3)c(F)c2)C(=O)O1 [Compound No. 06] , thanks.
Found: 0.74

----------
- Test system: MRSA 33
- assay explanation: MIC, agar incorporation method
- Type: cell-based, Staphylococcus aureus
- cond: MRSA 33; agar incorporation
// reported MIC for each item listed
Give your result in µg/mL as a bare value.

Examples with answers:
> print(dat)
                                   compound  scale.unit  value
1  CC(=O)NC[C@H]1CN(c2ccc(N3CCN(Cc4ccc(C=NO)o4)CC3)c(F)c2)C(=O)O1       µg/mL      2
2  CC(=O)NC[C@H]1CN(c2ccc(N3CC4C(C3)C4N(C)C(=O)c3ccsc3)c(F)c2)C(=O)O1 (stereo partly shown)       µg/mL      8
3  CC(=O)NC[C@H]1CN(c2ccc(N3CCN(C(=O)c4ccc(CCl)o4)CC3)c(F)c2)C(=O)O1       µg/mL      4
4  CC(=O)NC[C@H]1CN(c2ccc(N3CC4C(C3)C4N(C)Cc3ccc(C=O)o3)c(F)c2)C(=O)O1 (stereo partly shown)       µg/mL      4
5  CC(=O)NC[C@H]1CN(c2ccc(N3CCN(C(=O)C(=O)c4cccs4)CC3)c(F)c2)C(=O)O1       µg/mL      2
6  CC(=O)NC[C@H]1CN(c2ccc(N3CCN(C(=O)c4ccc([N+](=O)[O-])o4)CC3)c(F)c2)C(=O)O1       µg/mL    0.5

Shift focus to the following entry.
Lookup: What does the data say about its MIC? Entry: CC(=O)NC[C@H]1CN(c2ccc(N3CCN(Cc4ccc([N+](=O)[O-])o4)CC3)c(F)c2)C(=O)O1
Found: 2
